For each of the compounds below, state its viability at 10 µM.
# Test system: SW-620
# test-name: Cytotoxicity against human SW-620 cells assessed as cell viability at 10 uM incubated for 48 hrs by sulforhodamine B assay relative to control
# Type: functional
# condition-description: read-out: Activity
One number for each entry, in %.

Example entries begin here.
record_smiles=O=S(=O)(NCCNc1nccc(-c2c(-c3cccc(F)c3)nc3sccn23)n1)c1ccc(Cl)cc1 meas_value=59.6
record_smiles=O=C(NCCCNc1nccc(-c2c(-c3cccc(F)c3)nc3sccn23)n1)c1ccc(F)cc1 meas_value=115
record_smiles=O=C(NCCCNc1nccc(-c2c(-c3cccc(F)c3)nc3sccn23)n1)c1ccc(C(F)(F)F)cc1 meas_value=111
record_smiles=Cc1ccc(S(=O)(=O)NCCCNc2nccc(-c3c(-c4cccc(F)c4)nc4sccn34)n2)cc1 meas_value=79.4

[ask] State viability at 10 µM (SW-620) of `O=S(=O)(NCCCNc1nccc(-c2c(-c3cccc(F)c3)nc3sccn23)n1)c1ccc(Cl)cc1` .
[reply] 104
